Known inhibition at 0.05 µM of a selection of compounds
Biological target: PfPFT (Plasmodium falciparum, UniProt Q8I503+Q8IHP6)
Sequence (Q8I503 1-521): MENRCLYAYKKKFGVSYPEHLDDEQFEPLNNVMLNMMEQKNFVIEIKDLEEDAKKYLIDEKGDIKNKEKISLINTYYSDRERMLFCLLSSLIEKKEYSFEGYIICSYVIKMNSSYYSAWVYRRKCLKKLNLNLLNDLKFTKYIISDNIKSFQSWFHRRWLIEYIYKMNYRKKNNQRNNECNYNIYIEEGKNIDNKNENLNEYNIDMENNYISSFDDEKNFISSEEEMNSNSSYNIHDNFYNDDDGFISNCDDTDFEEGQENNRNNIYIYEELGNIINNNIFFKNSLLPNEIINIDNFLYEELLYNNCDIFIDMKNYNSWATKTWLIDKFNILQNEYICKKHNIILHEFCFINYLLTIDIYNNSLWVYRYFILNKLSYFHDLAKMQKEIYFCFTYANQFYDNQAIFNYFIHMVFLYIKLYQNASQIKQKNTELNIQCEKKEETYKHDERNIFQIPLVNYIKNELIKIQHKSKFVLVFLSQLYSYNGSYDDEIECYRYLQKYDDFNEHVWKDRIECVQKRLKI
Sequence (Q8IHP6 1-923): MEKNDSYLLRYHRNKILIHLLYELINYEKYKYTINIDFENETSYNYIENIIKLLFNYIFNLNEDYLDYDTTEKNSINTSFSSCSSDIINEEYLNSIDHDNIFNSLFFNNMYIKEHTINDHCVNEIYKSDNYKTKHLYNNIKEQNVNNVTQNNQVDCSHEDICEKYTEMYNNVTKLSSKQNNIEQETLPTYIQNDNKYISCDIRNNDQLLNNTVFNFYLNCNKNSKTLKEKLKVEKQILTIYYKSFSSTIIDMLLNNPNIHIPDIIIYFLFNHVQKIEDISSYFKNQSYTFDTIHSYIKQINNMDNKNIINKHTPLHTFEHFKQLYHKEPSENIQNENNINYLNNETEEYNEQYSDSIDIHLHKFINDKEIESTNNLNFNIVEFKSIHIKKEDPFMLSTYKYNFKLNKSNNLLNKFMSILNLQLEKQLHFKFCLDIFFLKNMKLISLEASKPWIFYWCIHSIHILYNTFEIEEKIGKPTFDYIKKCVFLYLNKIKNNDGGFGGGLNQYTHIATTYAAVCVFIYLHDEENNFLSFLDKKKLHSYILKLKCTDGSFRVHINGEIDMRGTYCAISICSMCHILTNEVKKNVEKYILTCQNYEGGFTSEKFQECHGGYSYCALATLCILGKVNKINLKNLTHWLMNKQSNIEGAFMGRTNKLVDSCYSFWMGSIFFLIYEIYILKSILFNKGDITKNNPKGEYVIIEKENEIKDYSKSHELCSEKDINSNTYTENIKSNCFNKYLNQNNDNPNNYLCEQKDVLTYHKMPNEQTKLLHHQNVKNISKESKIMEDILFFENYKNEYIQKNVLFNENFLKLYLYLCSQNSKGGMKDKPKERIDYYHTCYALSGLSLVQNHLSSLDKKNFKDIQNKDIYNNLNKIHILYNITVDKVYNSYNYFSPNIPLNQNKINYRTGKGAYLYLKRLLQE
Experiment: PfPFT inhibition, scintillation proximity assay with partially purified PfPFT
Format: biochemical
Settings: read-out: % Inhibition of PfPFT at 50 nM, inhibitor at 50 nM
Please don't drop the unit; write it after the number.

Worked examples, 5 compounds total:
I am curious: what inhibition at 0.05 µM value has been reported for `Cc1ccc(CS(=O)(=O)N(CCN(Cc2cnc[nH]2)c2ccccc2)Cc2ccccc2)cc1` ?
3%

Please look up its inhibition at 0.05 µM: `CC(=O)N(CCN(Cc1cncn1C)c1ccc(C#N)cc1)Cc1ccccc1`
56%

Which inhibition at 0.05 µM value is on record for `Cn1cncc1CN(CCN(Cc1ccccc1)S(=O)(=O)c1cccc2cccnc12)c1ccc(C#N)cc1` ?
35%

Which inhibition at 0.05 µM is reported for this compound? `Cc1ccccc1CN(CCN(Cc1cncn1C)c1ccc(C#N)cc1)S(=O)(=O)c1cn(C)cn1`
99%

Query: inhibition at 0.05 µM; subject: `CN(C)c1cccc2c(S(=O)(=O)N(CCN(Cc3cnc[nH]3)c3ccccc3)Cc3ccccc3)cccc12`
0%

Continuing:
Query: inhibition at 0.05 µM; subject: `Cc1ccc(CN(CCN(Cc2cncn2C)c2ccc(C#N)cc2)S(=O)(=O)c2cn(C)cn2)cc1`
54%

Give its inhibition at 0.05 µM value. Item: `Cn1cnc(S(=O)(=O)N(CCN(Cc2cncn2C)c2ccc(C#N)cc2)CC2CCN(C(=O)OC(C)(C)C)CC2)c1`
96%

Please report the recorded inhibition at 0.05 µM for `Cn1cnc(S(=O)(=O)N(CCN(Cc2cncn2C)c2ccc(C#N)cc2)CCn2cccc2)c1` .
56%

###

Target: PfPFT (Plasmodium falciparum, UniProt Q8I503+Q8IHP6)
Sequence (Q8I503 1-521): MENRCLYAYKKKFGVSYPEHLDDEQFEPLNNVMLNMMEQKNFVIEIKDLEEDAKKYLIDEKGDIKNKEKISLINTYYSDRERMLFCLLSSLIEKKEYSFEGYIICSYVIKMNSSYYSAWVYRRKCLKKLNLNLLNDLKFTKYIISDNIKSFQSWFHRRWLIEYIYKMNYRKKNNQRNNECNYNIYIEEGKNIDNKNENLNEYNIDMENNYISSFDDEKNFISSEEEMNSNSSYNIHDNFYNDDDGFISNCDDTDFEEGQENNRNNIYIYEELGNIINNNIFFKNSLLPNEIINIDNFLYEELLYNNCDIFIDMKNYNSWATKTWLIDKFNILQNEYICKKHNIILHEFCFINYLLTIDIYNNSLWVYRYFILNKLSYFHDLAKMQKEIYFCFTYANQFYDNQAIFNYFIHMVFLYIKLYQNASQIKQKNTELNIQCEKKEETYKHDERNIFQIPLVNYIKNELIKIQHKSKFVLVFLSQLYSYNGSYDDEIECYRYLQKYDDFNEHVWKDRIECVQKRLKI
Sequence (Q8IHP6 1-923): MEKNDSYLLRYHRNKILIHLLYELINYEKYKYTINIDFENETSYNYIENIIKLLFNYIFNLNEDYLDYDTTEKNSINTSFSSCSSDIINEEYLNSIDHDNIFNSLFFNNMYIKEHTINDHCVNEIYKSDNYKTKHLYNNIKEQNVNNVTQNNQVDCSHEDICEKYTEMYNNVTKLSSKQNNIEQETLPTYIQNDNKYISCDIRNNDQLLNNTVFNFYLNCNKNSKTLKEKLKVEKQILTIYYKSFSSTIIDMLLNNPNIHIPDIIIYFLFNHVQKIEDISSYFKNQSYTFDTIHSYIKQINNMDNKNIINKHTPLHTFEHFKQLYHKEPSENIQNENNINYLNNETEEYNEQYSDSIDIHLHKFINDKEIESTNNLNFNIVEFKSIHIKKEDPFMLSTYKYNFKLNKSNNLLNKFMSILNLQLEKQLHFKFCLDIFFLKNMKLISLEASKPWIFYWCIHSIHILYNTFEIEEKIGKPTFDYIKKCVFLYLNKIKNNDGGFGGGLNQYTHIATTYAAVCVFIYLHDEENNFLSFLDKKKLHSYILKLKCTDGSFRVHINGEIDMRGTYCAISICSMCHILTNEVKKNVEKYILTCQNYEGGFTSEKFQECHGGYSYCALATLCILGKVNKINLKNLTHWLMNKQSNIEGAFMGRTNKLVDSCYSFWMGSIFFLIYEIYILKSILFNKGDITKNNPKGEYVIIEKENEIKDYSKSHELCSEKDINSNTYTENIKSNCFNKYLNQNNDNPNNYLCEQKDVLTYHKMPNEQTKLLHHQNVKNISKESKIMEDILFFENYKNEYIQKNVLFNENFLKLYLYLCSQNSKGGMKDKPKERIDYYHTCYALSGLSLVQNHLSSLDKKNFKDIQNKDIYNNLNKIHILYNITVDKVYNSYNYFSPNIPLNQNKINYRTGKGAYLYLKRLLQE
Assay: PfPFT inhibition, scintillation proximity assay with partially purified PfPFT
Type: biochemical
Conditions: read-out: % Inhibition of PfPFT at 5 nM, inhibitor at 5 nM
Label criterion not met if inhibition at 0.005 µM falls below 20%; label criterion met in every other case.

Take a look at these entries with their results.
Check this compound for inhibition at 0.005 µM at or above 20%: `Cn1cnc(S(=O)(=O)N(CCN(Cc2cncn2C)c2ccc(C#N)cc2)Cc2ccccn2)c1`
criterion met

Please tell me: is the compound `C=C(C)CN(CCN(Cc1cncn1C)c1ccc(C#N)cc1)S(=O)(=O)c1cn(C)cn1` at or over 20% in terms of inhibition at 0.005 µM?
criterion not met

Could you please find out whether `Cn1cnc(S(=O)(=O)N(CCN(Cc2cncn2C)c2ccc(C#N)cc2)Cc2cccnc2)c1` has inhibition at 0.005 µM that meets 20% or exceeds it?
criterion not met

Is it the case that `Cn1cnc(S(=O)(=O)N(CCN(Cc2cncn2C)c2ccc(C#N)cc2)CC2CCCCC2)c1` has inhibition at 0.005 µM reaching or exceeding 20%?
criterion met

Kindly determine if inhibition at 0.005 µM recorded for `Cn1cnc(S(=O)(=O)N(CCN(Cc2cncn2C)c2ccc(C#N)cc2)CC2CCNCC2)c1` is above or exactly 20%.
criterion not met

Hello, I need to know if `Cn1cnc(S(=O)(=O)N(CCN(Cc2cncn2C)c2ccc(C#N)cc2)CCn2cccc2)c1` has measured inhibition at 0.005 µM not below 20%. Thanks!
criterion not met

Next:
Is inhibition at 0.005 µM for `Cn1cnc(S(=O)(=O)N(CCN(Cc2cncn2C)c2ccc(C#N)cc2)CC(=O)NC(C)(C)C)c1` at or above 20%?
criterion not met

I'd appreciate it if you could say whether `Cn1cnc(S(=O)(=O)N(CCN(Cc2cncn2C)c2ccc(C#N)cc2)Cc2ccc(-c3ccccc3)cc2)c1` has inhibition at 0.005 µM at least equal to 20%.
criterion not met

Would you say `Cc1ccccc1CN(CCN(Cc1cncn1C)c1ccc(-c2ccccc2)cc1)S(=O)(=O)c1cn(C)cn1` shows inhibition at 0.005 µM at minimum 20%?
criterion met

Hello, I need to know if `Cn1cnc(S(=O)(=O)N(CCN(Cc2cncn2C)c2ccc(C#N)cc2)CC2CCN(c3ncccn3)CC2)c1` has measured inhibition at 0.005 µM not below 20%. Thanks!
criterion met

Kindly determine if inhibition at 0.005 µM recorded for `Cn1cnc(S(=O)(=O)N(CCN(Cc2cncn2C)c2ccc(C#N)cc2)Cc2ccncc2)c1` is above or exactly 20%.
criterion met

Threshold query (inhibition at 0.005 µM >= 20%) on `Cc1ccccc1CN(CCN(Cc1cncn1C)c1ccc(C#N)cc1)S(=O)(=O)c1cn(C)cn1`
criterion met

Quick check: does `Cn1cnc(S(=O)(=O)N(CCN(Cc2cncn2C)c2ccc(Br)cc2)Cc2ccccc2)c1` have inhibition at 0.005 µM greater than or equal to 20%?
criterion met

Given the entry `Cn1cnc(S(=O)(=O)N(CCN(Cc2cncn2C)c2ccc(C#N)cc2)CC2CCN(C(=O)OC(C)(C)C)CC2)c1` , answer whether its inhibition at 0.005 µM meets or surpasses 20%.
criterion met

Hello, I need to know if `Cn1cncc1CN(CCN(Cc1ccccc1)S(=O)(=O)c1cccs1)c1ccc(C#N)cc1` has measured inhibition at 0.005 µM not below 20%. Thanks!
criterion not met

Measured values drawn from patent US20080312287A1 for this set.
